Data origin: patent US20030068675

Assay target: T1, ZFP SBS#1027 (synthetic, UniProt P08047)
T1 chain: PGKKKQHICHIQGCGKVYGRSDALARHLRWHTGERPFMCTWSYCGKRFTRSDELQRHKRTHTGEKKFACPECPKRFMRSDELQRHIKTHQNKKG
Procedure text: EMSA
Details: tags: MBP fusion
Quantity name: Kd (nM)
Please give a number only; it is taken to be in nM.

Consider the binder shown here: GCGGCGGTG (dsDNA) DNA 1: GCGGCGGTG DNA 2: CACCGCCGC What is its recorded Kd?
0.054
